Assignment: determine reported bioavailability for the given compounds.
experiment: Oral bioavailability in rat at 1 mg/kg; assay type: ADME, organism-based; conditions: in vivo

Record excerpt, results attached:
- compound: "CC(=O)N(O)C(CS(=O)(=O)c1ccc(-c2cccc(CNC(=O)c3nc4ccccc4c(=O)[nH]3)c2)cc1)C(C)C (stereo not drawn)"
  bioavailability: "< 1%"
- compound: "O=C(NCc1cccc(-c2ccc(CS(=O)(=O)Cc3n[nH]c(=O)[nH]3)cc2)c1)c1nc2ccccc2c(=O)[nH]1"
  bioavailability: "1.3%"

Next up:
INPUT: Returns the measured bioavailability for the input compound. Input: `CCOCCC1(Oc2ccc(-c3cccc(CNC(=O)c4nc5ccccc5c(=O)[nH]4)c3)cc2)C(=O)NC(=O)NC1=O`
OUTPUT: 32%

====

The following molecules each carry a recorded IC50 for Collagenase 3 (Homo sapiens, UniProt P45452).
Give bare numbers, in nM.

- molecule: "CC(C)[C@H](NS(=O)(=O)c1ccc(-c2cccc(CNC(=O)c3nc4ccccc4c(=O)[nH]3)c2)cc1)C(=O)NO"
  IC50 (nM): 0.0032
- molecule: "O=C1NC(=O)C(CC(=O)N2CCN(c3cccc(CNC(=O)c4nc5ccccc5c(=O)[nH]4)c3)CC2)N1 (stereo not given)"
  IC50 (nM): 0.19
- molecule: "CC(C)C(CS(=O)(=O)c1ccc(-c2cccc(CNC(=O)c3nc4ccccc4c(=O)[nH]3)c2)cc1)N(O)C(N)=O (stereo not given)"
  IC50 (nM): 0.26
- molecule: "O=C(NCc1cccc(-c2ccc(CS(=O)(=O)Cc3n[nH]c(=O)[nH]3)cc2)c1)c1nc2ccccc2c(=O)[nH]1"
  IC50 (nM): 0.071
- molecule: "CC(=O)N(O)C(CS(=O)(=O)c1ccc(-c2cccc(CNC(=O)c3nc4ccccc4c(=O)[nH]3)c2)cc1)C(C)C (stereo not given)"
  IC50 (nM): 0.3
- molecule: "O=C(NCc1cccc(OCCCOc2nc[nH]n2)c1)c1nc2ccccc2c(=O)[nH]1"
  IC50 (nM): 0.59
- molecule: "CCOCCC1(Oc2ccc(-c3cccc(CNC(=O)c4nc5ccccc5c(=O)[nH]4)c3)cc2)C(=O)NC(=O)NC1=O"
  IC50 (nM): 0.23
- molecule: "CC(C)C(CS(=O)(=O)c1ccc(-c2cccc(CNC(=O)c3nc4ccccc4c(=O)[nH]3)c2)cc1)N(O)C=O (stereo not given)"
  IC50 (nM): 0.051

INPUT: Returns the measured IC50 for the input molecule. Input: `O=C(NCc1cccc(-c2ccc(CS(=O)(=O)Cc3n[nH]c(=O)[nH]3)cc2)c1)c1nc2scc(-c3cccc(Cl)c3)c2c(=O)[nH]1`
OUTPUT: 0.38

====

target: UniProt:P08253; test: Inhibition of recombinant human […]-activated MMP2 using Cy3-PLGLK(Cy5Q)AR-NH2 as substrate measured after 40 mins by spectrofluorimetric method
Sequence (P08253 whole entry): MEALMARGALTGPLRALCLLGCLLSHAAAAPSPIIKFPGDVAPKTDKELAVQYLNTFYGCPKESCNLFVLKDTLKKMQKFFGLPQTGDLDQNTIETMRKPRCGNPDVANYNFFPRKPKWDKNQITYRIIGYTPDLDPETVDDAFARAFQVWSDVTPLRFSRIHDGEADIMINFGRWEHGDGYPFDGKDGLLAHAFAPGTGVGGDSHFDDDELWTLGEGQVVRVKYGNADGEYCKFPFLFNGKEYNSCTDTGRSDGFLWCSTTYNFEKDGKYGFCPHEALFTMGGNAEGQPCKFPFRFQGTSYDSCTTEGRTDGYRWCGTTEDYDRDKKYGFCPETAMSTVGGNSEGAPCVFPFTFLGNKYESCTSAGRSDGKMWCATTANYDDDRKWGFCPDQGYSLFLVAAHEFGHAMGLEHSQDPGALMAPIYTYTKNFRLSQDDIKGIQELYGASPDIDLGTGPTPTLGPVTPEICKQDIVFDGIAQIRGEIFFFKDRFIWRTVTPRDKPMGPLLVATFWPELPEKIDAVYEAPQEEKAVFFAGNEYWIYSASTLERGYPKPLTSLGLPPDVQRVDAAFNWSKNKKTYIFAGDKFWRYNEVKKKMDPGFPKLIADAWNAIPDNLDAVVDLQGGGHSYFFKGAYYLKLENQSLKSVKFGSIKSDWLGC
endpoint.name: IC50 (nM)
One number for each entry, in nM.

- compound: "CC(C)[C@H](NS(=O)(=O)c1ccc(-c2cccc(CNC(=O)c3nc4ccccc4c(=O)[nH]3)c2)cc1)C(=O)O"
  numeric.result: 8.3
- compound: "COc1cccc(CNC(=O)c2nc3scc(-c4cccc(Cl)c4)c3c(=O)[nH]2)c1"
  numeric.result: 2600
- compound: "O=C(NCc1cccc(OCCCS(=O)(=O)N2CCCCC2C(=O)NO)c1)c1nc2ccccc2c(=O)[nH]1 (configuration not stated)"
  numeric.result: 0.57
- compound: "O=C(NCc1cccc(-c2ccc(CS(=O)(=O)Cc3n[nH]c(=O)[nH]3)cc2)c1)c1nc2scc(-c3cccc(Cl)c3)c2c(=O)[nH]1"
  numeric.result: 86
- compound: "O=C(NCc1cccc(N2CCN(C(=O)Cc3n[nH]c(=O)[nH]3)CC2)c1)c1nc2ccccc2c(=O)[nH]1"
  numeric.result: 10
- compound: "O=C(NCc1cccc(-c2ccc(CS(=O)(=O)Cc3n[nH]c(=O)[nH]3)cc2)c1)c1nc2ccccc2c(=O)[nH]1"
  numeric.result: 23
- compound: "O=C(NCc1cccc(N2CCN(C(=O)Cc3c[nH]cn3)CC2)c1)c1nc2ccccc2c(=O)[nH]1"
  numeric.result: 120
- compound: "O=C(NCc1cccc(OCCCOc2nc[nH]n2)c1)c1nc2ccccc2c(=O)[nH]1"
  numeric.result: 32

Hi there! I need IC50 for each item below, if you can.
1. CC(C)[C@H](NS(=O)(=O)c1ccc(-c2cccc(CNC(=O)c3nc4ccccc4c(=O)[nH]3)c2)cc1)C(=O)NO
2. O=C(NCc1cccc(N2CCN(C(=O)Cc3nnn[nH]3)CC2)c1)c1nc2ccccc2c(=O)[nH]1

OUTPUT:
1. 1.9
2. 160

INPUT: Returns the measured IC50 for the input compound. Input: `CCOCCC1(Oc2ccc(-c3cccc(CNC(=O)c4nc5ccccc5c(=O)[nH]4)c3)cc2)C(=O)NC(=O)NC1=O`
OUTPUT: 110

====

biological target: Stromelysin-2 (Homo sapiens, UniProt P09238); test: Inhibition of recombinant human […]-activated MMP10 using Cy3-PLGLK(Cy5Q)AR-NH2 as substrate measured after 40 mins by spectrofluorimetric method
Sequence (P09238 whole entry): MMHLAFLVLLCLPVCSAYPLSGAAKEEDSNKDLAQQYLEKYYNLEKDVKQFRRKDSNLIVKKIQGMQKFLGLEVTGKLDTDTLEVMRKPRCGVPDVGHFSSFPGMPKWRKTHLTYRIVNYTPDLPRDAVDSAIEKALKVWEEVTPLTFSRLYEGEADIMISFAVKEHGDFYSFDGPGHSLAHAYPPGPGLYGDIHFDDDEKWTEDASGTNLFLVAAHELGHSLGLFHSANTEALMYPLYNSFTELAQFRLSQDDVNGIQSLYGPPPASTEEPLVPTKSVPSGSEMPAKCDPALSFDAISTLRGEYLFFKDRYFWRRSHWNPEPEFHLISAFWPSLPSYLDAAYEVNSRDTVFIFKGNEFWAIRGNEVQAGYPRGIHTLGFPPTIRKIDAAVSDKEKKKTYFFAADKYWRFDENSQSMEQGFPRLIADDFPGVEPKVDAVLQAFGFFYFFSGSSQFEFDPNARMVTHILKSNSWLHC
pIC50: −log10 of the molar value.
Could you label it Met if measured pIC50 is 7 or higher, and Not met otherwise?

Observe how each entry below is paired with its result.
- compound: "COc1cccc(CNC(=O)c2nc3scc(-c4cccc(Cl)c4)c3c(=O)[nH]2)c1"
  assigned.label: "Not met"
- compound: "O=C(NCc1cccc(-c2ccc(CS(=O)(=O)Cc3n[nH]c(=O)[nH]3)cc2)c1)c1nc2scc(-c3cccc(Cl)c3)c2c(=O)[nH]1"
  assigned.label: "Met"
- compound: "CC(C)C(CS(=O)(=O)c1ccc(-c2cccc(CNC(=O)c3nc4ccccc4c(=O)[nH]3)c2)cc1)N(O)C=O (stereo unspecified)"
  assigned.label: "Met"
- compound: "CC(C)[C@H](NS(=O)(=O)c1ccc(-c2cccc(CNC(=O)c3nc4ccccc4c(=O)[nH]3)c2)cc1)C(=O)O"
  assigned.label: "Met"

# input for lookup
INPUT: Given the entry `CC(C)[C@H](NS(=O)(=O)c1ccc(-c2cccc(CNC(=O)c3nc4ccccc4c(=O)[nH]3)c2)cc1)C(=O)NO` , answer whether its pIC50 meets or surpasses 7.
OUTPUT: Met

====

target: Stromelysin-2 (Homo sapiens); assay: Inhibition of recombinant human […]-activated MMP10 using Cy3-PLGLK(Cy5Q)AR-NH2 as substrate measured after 40 mins by spectrofluorimetric method
endpoint.name: pIC50
Give bare numbers, as −log10 of the molar value.

- compound: "O=C(NCc1cccc(-c2ccc(CS(=O)(=O)Cc3n[nH]c(=O)[nH]3)cc2)c1)c1nc2ccccc2c(=O)[nH]1"
  system: "Stromelysin-2 (Homo sapiens)"
  pIC50: 6.82

Hi there! I need pIC50 for each item below, if you can.
1. CCOCCC1(Oc2ccc(-c3cccc(CNC(=O)c4nc5ccccc5c(=O)[nH]4)c3)cc2)C(=O)NC(=O)NC1=O
2. O=C(NCc1cccc(N2CCN(C(=O)Cc3nnn[nH]3)CC2)c1)c1nc2ccccc2c(=O)[nH]1
3. O=C(NCc1cccc(N2CCN(C(=O)Cc3n[nH]c(=O)[nH]3)CC2)c1)c1nc2ccccc2c(=O)[nH]1
4. O=C(NCc1cccc(OCCCS(=O)(=O)N2CCCCC2C(=O)NO)c1)c1nc2ccccc2c(=O)[nH]1 (stereo unspecified)
5. O=C(NCc1cccc(N2CCN(C(=O)Cc3c[nH]cn3)CC2)c1)c1nc2ccccc2c(=O)[nH]1
6. CC(=O)N(O)C(CS(=O)(=O)c1ccc(-c2cccc(CNC(=O)c3nc4ccccc4c(=O)[nH]3)c2)cc1)C(C)C (stereo unspecified)
7. O=C(NCc1cccc(OCCCS(=O)(=O)N2CCCCC2C(=O)O)c1)c1nc2ccccc2c(=O)[nH]1 (stereo unspecified)

OUTPUT:
1. 6.03
2. 6.19
3. 8.21
4. 8.59
5. 6.34
6. 7.19
7. 6.62

====

Assignment: determine reported IC50 for the given compounds.
molecular target: Stromelysin-2 (Homo sapiens, UniProt P09238); assay: Inhibition of recombinant human […]-activated MMP10 using Cy3-PLGLK(Cy5Q)AR-NH2 as substrate measured after 40 mins by spectrofluorimetric method

Record excerpt, results attached:
- compound: "CC(C)C(CS(=O)(=O)c1ccc(-c2cccc(CNC(=O)c3nc4ccccc4c(=O)[nH]3)c2)cc1)N(O)C(N)=O (stereo not drawn)"
  system: "Stromelysin-2 (Homo sapiens, UniProt P09238)"
  endpoint.name: "IC50"
  result: "< 10 nM"
- compound: "O=C1NC(=O)C(CC(=O)N2CCN(c3cccc(CNC(=O)c4nc5ccccc5c(=O)[nH]4)c3)CC2)N1 (stereo not drawn)"
  system: "Stromelysin-2 (Homo sapiens, UniProt P09238)"
  endpoint.name: "IC50"
  result: "< 10 nM"

Next up:
INPUT: Returns the measured IC50 for the input compound. Input: `O=C(NCc1cccc(N2CCN(C(=O)Cc3cc(=O)[nH][nH]3)CC2)c1)c1nc2ccccc2c(=O)[nH]1`
OUTPUT: < 10 nM

The measured values listed here are drawn from ChEMBL document CHEMBL3867480.
